IC50 values for UniProt:P27338, compiled from several publications.
Sequence (P27338 whole entry): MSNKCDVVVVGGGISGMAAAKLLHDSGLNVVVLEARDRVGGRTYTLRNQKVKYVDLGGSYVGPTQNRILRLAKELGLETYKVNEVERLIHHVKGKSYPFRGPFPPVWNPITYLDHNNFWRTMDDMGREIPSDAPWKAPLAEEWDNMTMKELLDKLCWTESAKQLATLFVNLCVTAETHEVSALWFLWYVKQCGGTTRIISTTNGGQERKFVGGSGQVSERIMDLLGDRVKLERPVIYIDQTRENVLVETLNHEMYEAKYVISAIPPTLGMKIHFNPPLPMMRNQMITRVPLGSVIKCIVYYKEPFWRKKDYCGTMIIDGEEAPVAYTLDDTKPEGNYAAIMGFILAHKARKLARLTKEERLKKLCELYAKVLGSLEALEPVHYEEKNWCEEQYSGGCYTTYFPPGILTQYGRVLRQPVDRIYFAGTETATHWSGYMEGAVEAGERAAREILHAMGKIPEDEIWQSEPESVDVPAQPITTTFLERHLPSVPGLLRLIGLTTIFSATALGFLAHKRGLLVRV
Give your result in nM as a bare value.

Study these solved cases before continuing.
[[record]]
molecule = "O=C1CCCc2ccc(OCc3ccc(Br)cc3)cc21"
value_reported = 3.5

[[record]]
molecule = "N#Cc1ccc(Oc2ccccc2)cc1C#N"
value_reported = 6020

[[record]]
molecule = "O=C1CCCc2ccc(OCCc3ccccc3)cc21"
value_reported = 47

[[record]]
molecule = "COc1ccc2c(c1)C/C(=C\\c1ccco1)C2=O"
value_reported = 394

[[record]]
molecule = "N#Cc1cccc(COc2ccc3c(c2)C(=O)CCC3)c1"
value_reported = 3.1

[[record]]
molecule = "Cc1ccc(C2=NN(c3ccccc3)CC2)cc1"
value_reported = 50000

[[record]]
molecule = "N#Cc1ccc(OCc2ccccc2)cc1C#N"
value_reported = 7.9

[[record]]
molecule = "COc1ccc2c(c1)C/C(=C\\c1ccc(C)o1)C2=O"
value_reported = 26


Record for Cc1ccc(COc2ccc3c(=O)ccoc3c2)cc1 under target or system UniProt:P27338: IC50 reported as 75

The recorded IC50 with UniProt:P27338 for O=C1/C(=C/c2ccccn2)Cc2ccccc21 was 1530

Bench note, UniProt:P27338: CN(CC(=O)Nc1cccc(S(=O)(=O)N2CCOCC2)c1)c1cc(Cl)ccc1O , IC50 reads 65700

The observed IC50 for N#Cc1ccc(OCCc2ccccc2)cc1C#N when tested with UniProt:P27338 stands at 18

The molecule COc1ccc2c(c1)C/C(=C\c1cccs1)C2=O , when measured on UniProt:P27338, yielded IC50 of 114

The molecule Cc1ccc(NC(=O)CCCCc2cn(Cc3ccc4oc(-c5ccc(Cl)cc5)cc(=O)c4c3)nn2)cc1 , when measured on UniProt:P27338, yielded IC50 of 513000

Reported IC50 (UniProt:P27338) for entry CC(Nc1cc(Cl)ccc1O)C(=O)Nc1cccc(S(=O)(=O)N2CCCCC2)c1 (stereo not drawn) is 102000

// molecule O=C1CCCc2ccc(OCCCc3ccccc3)cc21 , assay UniProt:P27338, IC50 value: 22

The molecule C(=C\c1ccccc1)/COc1ccccc1 , when measured on UniProt:P27338, yielded IC50 of 1320

Item CC(C)(C)OC(=O)NCCC(=O)Oc1ccc(C(=O)Oc2ccc3c4c(c(=O)oc3c2)CCCC4)cc1Cl ; assay system UniProt:P27338; IC50 reported as 10000
